Molecular target: SHP2 protein (Homo sapiens, UniProt Q06124)
Sequence (Q06124 1-593): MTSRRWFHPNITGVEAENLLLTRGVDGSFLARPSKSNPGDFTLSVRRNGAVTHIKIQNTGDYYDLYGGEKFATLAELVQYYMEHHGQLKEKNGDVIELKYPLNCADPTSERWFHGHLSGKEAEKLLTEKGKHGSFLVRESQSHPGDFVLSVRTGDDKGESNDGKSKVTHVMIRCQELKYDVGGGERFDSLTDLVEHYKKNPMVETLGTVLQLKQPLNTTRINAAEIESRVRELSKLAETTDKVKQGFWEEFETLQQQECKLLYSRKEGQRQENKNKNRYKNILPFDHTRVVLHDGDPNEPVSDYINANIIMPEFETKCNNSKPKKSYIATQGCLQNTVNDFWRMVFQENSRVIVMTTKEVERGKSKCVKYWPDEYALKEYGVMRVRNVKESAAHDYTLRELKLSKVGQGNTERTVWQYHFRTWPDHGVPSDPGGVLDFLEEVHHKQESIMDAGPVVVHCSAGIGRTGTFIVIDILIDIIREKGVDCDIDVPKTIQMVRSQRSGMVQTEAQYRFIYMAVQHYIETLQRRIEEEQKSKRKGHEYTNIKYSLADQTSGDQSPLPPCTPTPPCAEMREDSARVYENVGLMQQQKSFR
Assay: Measurement of SHP2 protein degradation in NCI-H358 cells (western blotting)
Type: cell-based
Design: endogenous in cells; host or cells: NCI-H358
Settings: 0.01 μM, harvested after 24 hours
Reported SHP2% degradation is given for each of the following compounds.

compound | endpointUnit | SHP2% degradation
Cc1cc(C(C(=O)N2C[C@H](O)C[C@H]2C(=O)NCc2ccc(-c3scnc3C)cc2OC2CCN(C(=O)C3CCN(c4nccc(Sc5cnc(N6CCC(C)(CN)CC6)cn5)c4Cl)CC3)CC2)C(C)C)on1 (stereo partly drawn) [Example 93] | % | 99.9
CC(=O)N[C@H](C(=O)N1C[C@H](O)C[C@H]1C(=O)NCc1ccc(-c2scnc2C)cc1OC1CCN(C(=O)C2CCN(c3nccc(Sc4cnc(N5CCC(C)(CN)CC5)cn4)c3Cl)CC2)CC1)C1CC1 | % | 53.2
Cc1ncsc1-c1ccc(CNC(=O)[C@@H]2C[C@@H](O)CN2C(=O)[C@@H](NC(=O)C2(F)CC2)C(C)(C)C)c(O[C@H]2CC[C@H](C(=O)N3CC(Nc4cccc(Sc5cnc(N6CCC7(CC6)Cc6ncccc6[C@H]7N)cn5)c4Cl)C3)CC2)c1 | % | 93.5
CC(=O)N[C@H](C(=O)N1C[C@H](O)C[C@H]1C(=O)NCc1ccc(-c2scnc2C)cc1O[C@H]1CC[C@H](C(=O)N2CC(Nc3nccc(Sc4cnc(N5CCC(C)(CN)CC5)c(CO)n4)c3Cl)C2)CC1)C(C)(C)C | % | 88.5
CC(=O)N[C@H](C(=O)N1C[C@H](O)C[C@H]1C(=O)NCc1ccc(-c2scnc2C)cc1O[C@H]1CC[C@H](C(=O)N2CCC(Nc3nccc(Sc4cnc(N5CCC6(CC5)CO[C@@H](C)[C@H]6N)cn4)c3Cl)CC2)CC1)C(C)(C)C | % | 94.3
Cc1ncsc1-c1ccc(CNC(=O)[C@@H]2C[C@@H](O)CN2C(=O)[C@@H](NC(=O)C2(F)CC2)C(C)(C)C)c(O[C@H]2CC[C@H](C(=O)N3CCC(Nc4nccc(Sc5cnc(N6CCC7(CC6)CO[C@@H](C)[C@H]7N)cn5)c4Cl)CC3)CC2)c1 | % | 94.2

These measurements were taken from patent US20260144788A1.
